List of IC50 values.
# target_of_assay: Cyclin-dependent kinase 2/cyclin E (Homo sapiens)
# protocol: In vitro inhibitory activity against human cyclin dependent kinase (CDK2/E)

Example cases with answers are listed next.
INSERT INTO results (smiles_data, recorded_metric, result) VALUES
  ('CCOC(=O)c1nc(NC(C)(C)C)c2ccccc2n1', 'IC50', '> 5.8 µM'),
  ('CC(C)(C)Nc1ncnc2ccccc12', 'IC50', '> 50 µM'),
  ('CC(C)(C)Nc1nc(C(=O)O)nc2ccccc12', 'IC50', '> 815 µM'),
  ('CC(C)S(=O)(=O)Nc1nc(C(F)(F)F)nc2ccccc12', 'IC50', '> 31 µM'),
  ('CC(C)(C)Nc1nc(C(F)(F)F)nc2ccc(-c3ccc(Cl)cc3Cl)cc12', 'IC50', '> 12 µM');

// moving on: another record for IC50
Give reported IC50 value for CC(C)(C)Nc1nc(Nc2ccccc2)nc2ccccc12 > 34 µM
